# TARGET OR SYSTEM: TFPI (tissue factor pathway inhibitor, full-length) (Homo sapiens, UniProt P10646 SEQ:1-276)
# Sequence (P10646 29-304): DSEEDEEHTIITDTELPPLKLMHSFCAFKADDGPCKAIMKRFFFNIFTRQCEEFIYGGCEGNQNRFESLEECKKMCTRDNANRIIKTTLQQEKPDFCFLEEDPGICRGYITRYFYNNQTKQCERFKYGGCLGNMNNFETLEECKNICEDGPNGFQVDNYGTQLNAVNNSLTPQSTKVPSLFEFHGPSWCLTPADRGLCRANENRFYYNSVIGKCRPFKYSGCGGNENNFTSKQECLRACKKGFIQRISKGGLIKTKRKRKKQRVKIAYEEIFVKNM
# METHOD NOTES: competition; dot-blot
# CONDITION CONTEXT: tags: American Diagnostica 4500PC/4900PC, E. coli expressed
QUANTITY NAME: binding signal

As a guide, the following entries are already answered.
# BINDER, binding signal
data = [
    ("GGAAUAUACUUGGCUCGUUAGGUGCGUAUAUA (XNA, 2'-OMe except dC9, dC14, dC16, dC25 and dA30; 3' idT) [ARC19473]", "≤ 5 fold IC50 vs ARC17480"),
    ("GGAAUAUACUUGGCUCGUUAGGUGCGUAUATA (XNA, 2'-OMe except dC9, dC14, dC16, dC25 and dT31; 3' idT) [ARC19474]", "≤ 5 fold IC50 vs ARC17480"),
]

[Q] For the binder GGAAUAUACUUGGCUCGUUAGGUGCGUAUAUA (XNA, 2'-OMe except dC9, dC14, dC16, dC25 and dG22; 3' idT) [ARC19466] , give its measured binding signal value.
[A] ≤ 5 fold IC50 vs ARC17480
